# measurement target: T1, HTRA3, P83110
# T1 sequence (P83110 354-453, limits assumed, looked up): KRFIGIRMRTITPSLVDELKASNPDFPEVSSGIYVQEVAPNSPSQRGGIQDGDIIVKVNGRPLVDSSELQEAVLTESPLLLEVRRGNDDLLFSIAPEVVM
# assay overview: holdup assay
# Design: key: below the threshold = too weak to quantify, mostly under pKd 3.1 to 4
# test conditions: plain residues with an end cap or a label only (N-terminal biotin on a linker: ado-ado)
endpoint label: pKd

> print(dat)
                                 binder  endpoint.label             observed
 1          NSTHNLKDYV [CLDN20, P56880]             pKd                 3.97
 2            GDSSRKEYFI [GYPC, P04921]             pKd                 4.64
 3          KIEDVEITLV [FCHSD2, O94868]             pKd                 3.71
 4  NTALVESEDL [PALLS, Q8WX93;Q8WX93-1]             pKd  below the threshold
 5          HYPASPDSWV [CTNND2, Q9UQB3]             pKd                 5.66
 6           QLGSPTADLA [SIPA1, Q96FS4]             pKd  below the threshold
 7           QKNKDREYYV [NRXN3, Q9HDB5]             pKd                 4.84
 8         WAKEKQHTRL [SLC17A1, Q14916]             pKd  below the threshold
 9          EPAKETTTNV [SLC2A3, P11169]             pKd  below the threshold
10          PLPPEEESWV [GAS2L2, Q8NHY3]             pKd                 5.59
11           DAAHHDESNC [FMNL3, Q8IVF7]             pKd  below the threshold
12         IKLETKKTKL [SLC15A2, Q16348]             pKd  below the threshold
13           PSDSVGKDVF [EGLN1, Q9GZT9]             pKd  below the threshold
14           KAEEKPPSKV [SCN4B, Q8IWT1]             pKd  below the threshold
15           ATKDKKITTV [EXOC4, Q96A65]             pKd  below the threshold
16           GNDPDRGTSI [GRID2, O43424]             pKd  below the threshold
